TARGET DESC: T1, 4H56-bH
T1 chain: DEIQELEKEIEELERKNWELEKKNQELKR
PROTOCOL DETAILS: two-hybrid library CCNG1;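 note: natural log of median RNA to DNA barcode read ratio; higher means stronger binding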
ASSAY ENDPOINT: interaction score

Answered examples (5):
> print(dat)
                                     binder  recorded.value
1  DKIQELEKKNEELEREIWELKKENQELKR [4H2444-bH]          -0.284
2  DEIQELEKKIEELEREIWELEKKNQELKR [4H264-bH]          -0.538
3  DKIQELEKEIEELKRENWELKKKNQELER [4H2143-bH]           0.127
4  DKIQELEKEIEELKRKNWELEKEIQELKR [4H2162-bH]           0.668
5  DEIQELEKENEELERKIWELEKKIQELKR [4H166-bH]           -1.05

A = DKNQELEKENEELKRKIWELEKEIQELER [4H3297-bH]
B = DEIQELEKEIEELERKNWELEKKNQELKR [4H56-bH]
Among A and B , whose measured interaction score is the smaller figure? Answer = label.
A
